ASSAY INFO: ATG_NRF2_ARE_CIS: Attagene CIS-FACTORIAL HepG2 Assay for human Nuclear Factor Erythroid 2 Related Factor 2 (NFR2) response to Antioxidant Response Elements (ARE) (AID 2282992);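 as to AC50: reporter mRNA level measured by RT-PCR and capillary electrophoresis fluorescence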
CONDITION CONTEXT: HepG2 Attagene ARE/NRF2 reporter, transcription factor activity; actives raise or lower the signal
Active and inactive are the calls of the source. The calls were made as follows: active = hit-call score of the fitted dose curve at least 0.9, where 1 is the maximum; inactive = score below 0.9.
READOUT LABEL: AC50

See these solved cases before continuing.
- COc1nccnc1CC(C)C: inactive
- COCC(=O)O: inactive
- CC(=O)CCC=C(C)C: inactive
- CC12CCC(CC1)C(C)(C)O2: inactive
- CC(C)(CO)COC(=O)C(C)(C)CO: inactive
- C/C=C/C=C/CCCCCCCO: 45.6 µM (active)

Report AC50 for `COc1ccc(C(=O)/C(Br)=C\C(=O)O)cc1`
2.53 µM (active)

Report AC50 for `CCCCNS(=O)(=O)c1ccccc1`
inactive

Report AC50 for `Cc1cc(C)c(C=O)c(C)c1`
inactive

Report AC50 for CCC(C)(O)CCCC(C)C (configuration not stated)
inactive

Report AC50 for `CCc1occc(=O)c1O`
inactive

###

ASSAY INFO: ATG_M_32_CIS: Attagene CIS-FACTORIAL HepG2 Assay for M32 Transcription Factor (Internal Marker) (AID 2282949);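 also: background control marker of the multiplexed CIS panel rather than a real target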
CONDITION CONTEXT: HepG2 Attagene cis-factorial M32 reporter, mRNA; actives raise or lower the signal
Experimental: ATG_CIS is a cell-based, multiplexed-readout assay that uses HepG2, a human liver cell line, with measurements taken at 24 hours after chemical dosing in a 24-well plate.ATG_M_32_CIS is one of 52 assay component(s) measured or calculated from the ATG_CIS assay. […] This assay endpoint, ATG_M_32_CIS, was analyzed with bidirectional fitting relative to DMSO as the negative control and baseline of activity. […]
Activity calls are given as the source filed them. How the source made its calls: active means hit-call score of the fitted dose curve at least 0.9, where 1 is the maximum; inactive means score below 0.9.
# valid calls are 1 for active, -1 for inactive; nothing else

Sample answers from the record:
• CC(C)CO = -1
• CC1=CCC2CC1C2(C)C (stereo unspecified) = -1
• CCCc1ccc(O)c(OC)c1 = -1
• CCOC(=O)C1=NN(c2ccc(Cl)cc2Cl)C(C)(C(=O)OCC)C1 (stereo unspecified) = -1

GET /call?item= `CC/C=C\CCOC(=O)c1ccccc1O` returns the recorded outcome of this test.
-1

GET /call?item= `CC(C)=CCCC(C)=CC#N` returns the recorded outcome of this test.
-1

GET /call?item= `O=C1CCCN1C1CCCCC1` returns the recorded outcome of this test.
-1

GET /call?item= CCC(=O)C1CC(C(C)C)CC=C1C (stereo unspecified) returns the recorded outcome of this test.
-1

GET /call?item= `CC(C)CC(=O)OCc1ccccc1` returns the recorded outcome of this test.
-1

GET /call?item= `CCCCC1C(=O)N(c2ccccc2)N(c2ccccc2)C1=O` returns the recorded outcome of this test.
-1

GET /call?item= `O=c1c(O)c(-c2ccc(O)cc2O)oc2cc(O)cc(O)c12` returns the recorded outcome of this test.
-1

GET /call?item= C=CC(C)(CCC=C(C)C)OC(=O)C=Cc1ccccc1 (stereo unspecified) returns the recorded outcome of this test.
-1

GET /call?item= `Cc1cccc(C(C)(C)C)c1O` returns the recorded outcome of this test.
-1

GET /call?item= `N#CC1(N)CCCCC1` returns the recorded outcome of this test.
-1

GET /call?item= `Cc1ccc(S(=O)(=O)N=C=O)cc1` returns the recorded outcome of this test.
-1

GET /call?item= `Nc1ccc(C(=O)O)cc1` returns the recorded outcome of this test.
-1

GET /call?item= `CC(=O)CCC=C(C)C` returns the recorded outcome of this test.
-1

GET /call?item= `Cc1noc(NS(=O)(=O)c2ccc(N)cc2)c1C` returns the recorded outcome of this test.
-1

###

TARGET OF ASSAY: Aryl hydrocarbon receptor (Homo sapiens)
ASSAY INFO: ATG_Ahr_CIS: Attagene CIS-FACTORIAL HepG2 Assay for human Aryl Hydrocarbon Receptor (Ahr) (AID 2282930)
CONDITION CONTEXT: HepG2 AhR cis-factorial reporter transcription; actives raise or lower the signal
Activity calls are given as the source filed them. How the source made its calls: active means hit-call score of the fitted dose curve at least 0.9, where 1 is the maximum; inactive means score below 0.9.
# valid calls are active, inactive; nothing else

* C[N+](C)(C)CCCNS(=O)(=O)C(F)(F)C(F)(F)C(F)(F)C(F)(F)C(F)(F)C(F)(F)C(F)(F)C(F)(F)F | inactive

GET /call?item= `CCCCc1ccc(Cl)cc1` returns the recorded outcome of this test.
inactive

GET /call?item= `CC(C)OC(=O)c1ccccc1` returns the recorded outcome of this test.
inactive

GET /call?item= `C=CCCCCCCCCOC(C)=O` returns the recorded outcome of this test.
inactive

GET /call?item= `CC(C)c1ccc2ncccc2c1` returns the recorded outcome of this test.
inactive

GET /call?item= `[Cl][Sc]([Cl])[Cl]` returns the recorded outcome of this test.
active

GET /call?item= C=CC(=O)OCC(C)OCC(C)OCC(C)OC(=O)C=C (stereo unspecified) returns the recorded outcome of this test.
inactive

GET /call?item= C=C(C)C(=O)OCC(O)COc1ccc(C(C)(C)c2ccc(OCC(O)COC(=O)C(=C)C)cc2)cc1 (stereo unspecified) returns the recorded outcome of this test.
inactive

GET /call?item= `O=C(Cl)c1c(Cl)c(Cl)c(C(=O)Cl)c(Cl)c1Cl` returns the recorded outcome of this test.
inactive

GET /call?item= `O=C(Cl)c1ccc(C(=O)Cl)cc1` returns the recorded outcome of this test.
inactive

GET /call?item= `COc1ccc(C(=O)/C(Br)=C\C(=O)O)cc1` returns the recorded outcome of this test.
inactive

GET /call?item= `CC(=O)CC(=O)Nc1ccccc1C` returns the recorded outcome of this test.
inactive

GET /call?item= `Cc1c(O)cccc1O` returns the recorded outcome of this test.
active

GET /call?item= `c1ccc2c(c1)[nH]c1ccccc12` returns the recorded outcome of this test.
active

GET /call?item= `COc1ccc(C(=O)c2ccccc2)c(O)c1` returns the recorded outcome of this test.
inactive

GET /call?item= `C=C(C)C(=O)OCCOC(=O)C(=C)C` returns the recorded outcome of this test.
inactive

GET /call?item= `O=C(OCc1ccccc1)c1ccc(O)cc1` returns the recorded outcome of this test.
inactive

###

ASSAY INFO: BSK_CASM3C_Proliferation: Cell Proliferation Assessment in the BioMAP Diversity Plus: CASM3C Assay (AID 2283047);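 also: sulforhodamine B total protein stain as relative cell number at 560 nm; sub-confluent cells exposed 48 h before staining; fitted both ways against DMSO so gain or loss of cell number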
CONDITION CONTEXT: primary human coronary artery smooth muscle cells
The source made the active and inactive calls. Rule for the calls: active = hit-call score of the fitted dose curve at least 0.9, where 1 is the maximum; inactive = score below 0.9.
# valid calls are label 1 for active, label 0 for inactive; nothing else

• CC(C)CCCCCOC(=O)CS = label 0
• Fc1ccc(Br)cc1 = label 0
• Oc1ccccc1Cc1ccccc1O = label 0

GET /call?item= CCCCCCCCC(CO)CCCCCC (stereo unspecified) returns the recorded outcome of this test.
label 0

GET /call?item= `C[N+](C)(C)CCCNS(=O)(=O)C(F)(F)C(F)(F)C(F)(F)C(F)(F)C(F)(F)C(F)(F)C(F)(F)C(F)(F)F` returns the recorded outcome of this test.
label 0

GET /call?item= `Oc1ccc(/C=C/c2cc(O)cc(O)c2)cc1` returns the recorded outcome of this test.
label 1

GET /call?item= `O=C(Oc1ccccc1)c1ccccc1C(=O)Oc1ccccc1` returns the recorded outcome of this test.
label 0

GET /call?item= `CCCCC1C(=O)N(c2ccccc2)N(c2ccccc2)C1=O` returns the recorded outcome of this test.
label 0

GET /call?item= `Nc1cccc(N)n1` returns the recorded outcome of this test.
label 0

GET /call?item= `Cc1ccc([N+](=O)[O-])cc1N` returns the recorded outcome of this test.
label 0

GET /call?item= `CC(C)c1cccc(C(C)C)c1N` returns the recorded outcome of this test.
label 0

###

ASSAY INFO: ACEA_ER_80hr: ACEA Biosciences xCELLigence Real-Time Cell Analysis on Estrogen Receptor Agonism for Proliferation (AID 2282667)
CONDITION CONTEXT: T47D proliferation, impedance (xCELLigence), 80 h
Inconclusive results are not listed. The source made the active and inactive calls. The calls were made as follows: active = hit-call score of the fitted dose curve at least 0.9, where 1 is the maximum; inconclusive = response in the unintended direction; inactive = score below 0.9.
# valid calls are active, inactive; nothing else

Sample answers from the record:
* CCN1CN(CC)CN(CC)C1 | inactive
* CCCCCC[C@@H](O)C/C=C\CCCCCCCC(=O)OCC(O)CO (some centres undefined) | inactive
* CCCCCCCCCC(C)=O | inactive
* CN(C)c1ccc2nc3ccc(=[N+](C)C)cc-3sc2c1 | inactive
* CC1(C)CC(O)CC(C)(C)N1[O] | inactive

GET /call?item= `C=CCCCCCCCCOC(C)=O` returns the recorded outcome of this test.
inactive

GET /call?item= C=CC(C)(CCC=C(C)C)OC(=O)C=Cc1ccccc1 (centres undefined) returns the recorded outcome of this test.
inactive

GET /call?item= CC1=CC(C)C(C=O)CC1 (centres undefined) returns the recorded outcome of this test.
inactive

GET /call?item= `CCCCCCO` returns the recorded outcome of this test.
inactive

GET /call?item= `CCCCOCCOCCOC(C)=O` returns the recorded outcome of this test.
inactive

Where these numbers come from: PubChem BioAssay (EPA / NIEHS)
